Assay: Serum stability test
Assay type: in vitro ADME
Conditions: human, diluted human serum (25%)
measured.attribute: half-life at 50 µM

Query :: Look up half-life at 50 µM for this compound: CC[C@H](C)[C@H](NC(=O)[C@@H](NC(=O)[C@@H]1CCCN1C(=O)[C@H](Cc1c[nH]cn1)NC(=O)[C@@H]1CCCN1C(=O)CN)C(C)C)C(=O)N[C@H](C(=O)N[C@H](C(=O)N[C@H](C(=O)NCC(=O)N1CCC[C@H]1C(=O)N[C@@H](Cc1c[nH]cn1)C(=O)N[C@@H](CCC(=O)O)C(=O)N[C@@H](CCC(=O)O)C(N)=O)[C@@H](C)O)[C@@H](C)CC)C(C)C [VIVIT]
Result :: ~1 h
